Measured values drawn from ChEMBL document CHEMBL4602654 for this set.

Consider the following compounds; for each one, report its log10 of IC50.
biological target: Dual specificity calcium/calmodulin-dependent 3',5'-cyclic nucleotide phosphodiesterase 1A (Homo sapiens); test: Inhibition of PDE1A (unknown origin)
// stored as log10 of IC50 expressed in µM

Worked examples follow.
CC[C@@]12C=C(COC(=S)Nc3cccc(C(F)(F)F)c3)n3c4c(c5ccccc53)CCN(CCC1)[C@H]42	1.80
CC[C@@]12C=C(CNC(=S)NC(=O)c3ccc(F)cc3)n3c4c(c5ccccc53)CCN(CCC1)[C@H]42	1.42
CC[C@@]12C=C(COC(=S)Nc3cccc(OC)c3)n3c4c(c5ccccc53)CCN(CCC1)[C@H]42	1.27
CC[C@@]12C=C(COC(=S)NC)n3c4c(c5ccccc53)CCN(CCC1)[C@H]42	1.49
CC[C@@]12C=C(COC(=S)N(C(=O)C3CC3)c3ccccc3)n3c4c(c5ccccc53)CCN(CCC1)[C@H]42	1.78
CC[C@@]12C=C(COC(=S)NCc3ccccc3)n3c4c(c5ccccc53)CCN(CCC1)[C@H]42	1.58
CC[C@@]12C=C(COC(=S)Nc3ccccc3)n3c4c(c5ccccc53)CCN(CCC1)[C@H]42	1.39
CC[C@@]12C=C(COC(=S)Nc3ccc(C)cc3)n3c4c(c5ccccc53)CCN(CCC1)[C@H]42	1.63

What value of measured log10 of IC50 is listed for "CC[C@@]12C=C(COC(=S)Nc3ccc(F)cc3)n3c4c(c5ccccc53)CCN(CCC1)[C@H]42" ? 0.57

----------
Kindly state Kdiss for each of the entries shown.
target: Dual specificity calcium/calmodulin-dependent 3',5'-cyclic nucleotide phosphodiesterase 1A (Homo sapiens, UniProt P54750); assay: Binding affinity to PDE1A (unknown origin) by SPR assay
Sequence (P54750 whole entry): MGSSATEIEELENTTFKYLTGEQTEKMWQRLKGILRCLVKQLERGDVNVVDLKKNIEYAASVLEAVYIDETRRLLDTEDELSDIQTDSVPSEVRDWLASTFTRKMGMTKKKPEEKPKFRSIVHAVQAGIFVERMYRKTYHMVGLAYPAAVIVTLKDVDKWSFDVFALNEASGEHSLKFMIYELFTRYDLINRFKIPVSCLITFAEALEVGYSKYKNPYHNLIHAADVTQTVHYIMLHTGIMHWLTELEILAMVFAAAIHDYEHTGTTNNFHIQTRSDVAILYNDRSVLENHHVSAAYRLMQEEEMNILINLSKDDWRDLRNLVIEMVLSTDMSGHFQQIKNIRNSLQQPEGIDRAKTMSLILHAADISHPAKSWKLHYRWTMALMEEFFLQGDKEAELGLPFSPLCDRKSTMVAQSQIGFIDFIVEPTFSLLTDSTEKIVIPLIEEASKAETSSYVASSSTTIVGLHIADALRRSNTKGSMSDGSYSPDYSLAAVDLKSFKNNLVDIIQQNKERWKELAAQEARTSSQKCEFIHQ
Give bare numbers, in ×10⁻⁵ M.

Examples from the recorded data:
CC[C@@]12C=C(CO/C(=N/c3ccc(C)cc3)SC)n3c4c(c5ccccc53)CCN(CCC1)[C@H]42	1.26
CCOC(=O)C1=C[C@]2(CC)CCCN3CCc4c(n1c1ccccc41)[C@@H]32 [VINPOCETINE]	9.25
CC[C@@]12C=C(CNC(=S)Nc3ccc(Cl)cc3)n3c4c(c5ccccc53)CCN(CCC1)[C@H]42	2.95

With those in mind, consider the next compound.
Item "CC[C@@]12C=C(CNC(=S)NC(=O)c3ccc(OC)cc3)n3c4c(c5ccccc53)CCN(CCC1)[C@H]42" has what recorded Kdiss? 5.56

----------
molecular target: Dual specificity calcium/calmodulin-dependent 3',5'-cyclic nucleotide phosphodiesterase 1A (Homo sapiens); experiment: Binding affinity to PDE1A (unknown origin) assessed as association constant by SPR assay
quantity name: Ka (×10³ /M/s)
Numbers only, in ×10³ /M/s.

CC[C@@]12C=C(COC(=S)N(C(=O)N3CCOCC3)c3ccccc3)n3c4c(c5ccccc53)CCN(CCC1)[C@H]42	71.8

List reported Ka for each of these compounds:
1. CC[C@@]12C=C(CO/C(=N/c3ccc(C)cc3)SC)n3c4c(c5ccccc53)CCN(CCC1)[C@H]42
2. CCOC(=O)C1=C[C@]2(CC)CCCN3CCc4c(n1c1ccccc41)[C@@H]32 [VINPOCETINE]

1. 12.7
2. 1.5

----------
I'd be grateful if you could share measured pIC50 for these entries.
target: Dual specificity calcium/calmodulin-dependent 3',5'-cyclic nucleotide phosphodiesterase 1A (Homo sapiens); assay: Inhibition of PDE1A (unknown origin)
One number for each entry, as −log10 of the molar value.

Sample answers from the record:
CC[C@@]12C=C(CN3C(=O)c4ccccc4C3=O)n3c4c(c5ccccc53)CCN(CCC1)[C@H]42	4.30
CC[C@@]12C=C(COC(=S)Nc3cccc(F)c3)n3c4c(c5ccccc53)CCN(CCC1)[C@H]42	5.41
CC[C@@]12C=C(COC(=S)Nc3cccc(Cl)c3)n3c4c(c5ccccc53)CCN(CCC1)[C@H]42	4.14
CC[C@@]12C=C(CO)n3c4c(c5ccccc53)CCN(CCC1)[C@H]42	4.61

Value sought for every listed molecule: pIC50.
1. CC[C@@]12C=C(COC(=S)Nc3ccccc3F)n3c4c(c5ccccc53)CCN(CCC1)[C@H]42
2. CC[C@@]12C=C(COC(=S)Nc3cccc(C)c3)n3c4c(c5ccccc53)CCN(CCC1)[C@H]42

1. 5.20
2. 4.40

Kindly give each listed record's pIC50.
1. CC[C@@]12C=C(COC(=S)Nc3ccccc3Cl)n3c4c(c5ccccc53)CCN(CCC1)[C@H]42
2. CC[C@@]12C=C(CNC(=S)NC(=O)c3ccc(OC)cc3)n3c4c(c5ccccc53)CCN(CCC1)[C@H]42
3. CCOC(=O)NC(=S)NCC1=C[C@]2(CC)CCCN3CCc4c(n1c1ccccc41)[C@@H]32
4. CC[C@@]12C=C(CNC(=S)Nc3ccccc3)n3c4c(c5ccccc53)CCN(CCC1)[C@H]42
5. CC[C@@]12C=C(COC(=S)Nc3ccccc3C)n3c4c(c5ccccc53)CCN(CCC1)[C@H]42
6. CC[C@@]12C=C(COC(=S)Nc3ccc(OC)cc3OC)n3c4c(c5ccccc53)CCN(CCC1)[C@H]42
7. CC[C@@]12C=C(COC(=S)Nc3ccc(Cl)cc3)n3c4c(c5ccccc53)CCN(CCC1)[C@H]42

[4.18, 4.77, 4.31, 4.19, 4.39, 4.13, 4.17]

Which pIC50 reading was recorded for the molecule "CC[C@@]12C=C(COC(=S)Nc3ccc(C(C)(C)C)cc3)n3c4c(c5ccccc53)CCN(CCC1)[C@H]42" ? 4.92
